- subject_of_test: HA of ca A/swine/Missouri/06 (H2N3) virus (influenza A virus)
- procedure_details: cell-based or functional assay
metric_name: Neutralization IC50, H2-MO06

Use the examples below as a reference point.
binder	Neutralization IC50, H2-MO06
Antibody 6 (antibody, V domains shown) VH: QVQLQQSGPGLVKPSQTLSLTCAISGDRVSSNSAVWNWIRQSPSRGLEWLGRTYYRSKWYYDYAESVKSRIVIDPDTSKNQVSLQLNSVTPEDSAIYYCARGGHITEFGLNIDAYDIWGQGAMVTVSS VL: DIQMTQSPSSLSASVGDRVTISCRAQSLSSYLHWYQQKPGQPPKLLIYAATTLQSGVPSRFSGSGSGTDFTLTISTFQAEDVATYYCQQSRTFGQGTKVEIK	2.9 µg/mL
Antibody 3 (antibody, V domains shown) VH: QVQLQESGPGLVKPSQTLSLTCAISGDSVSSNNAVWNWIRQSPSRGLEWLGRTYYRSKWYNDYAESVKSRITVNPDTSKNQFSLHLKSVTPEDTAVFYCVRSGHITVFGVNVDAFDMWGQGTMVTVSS VL: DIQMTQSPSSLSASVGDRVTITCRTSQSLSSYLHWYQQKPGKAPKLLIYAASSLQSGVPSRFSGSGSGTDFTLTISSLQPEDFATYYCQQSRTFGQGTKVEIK	2.27 µg/mL

Which Neutralization IC50, H2-MO06 is reported for this binder? Antibody 5 (antibody, V domains shown) VH: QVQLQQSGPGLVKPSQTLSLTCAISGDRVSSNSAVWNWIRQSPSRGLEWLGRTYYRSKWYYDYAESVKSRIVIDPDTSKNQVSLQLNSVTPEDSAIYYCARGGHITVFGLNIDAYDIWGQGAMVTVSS VL: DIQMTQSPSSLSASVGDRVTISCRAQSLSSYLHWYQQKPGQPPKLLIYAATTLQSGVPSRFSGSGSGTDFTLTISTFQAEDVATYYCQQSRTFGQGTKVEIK
2.38 µg/mL

meta.source: patent US20200109188A1
